Assay comment: drug combination growth inhibition, ovarian cancer – cell-based, oncology-focused library, rucaparib conditional, profiling panel (AID 1508598)
Applied conditions: patient-derived ovarian cancer cells, CellTiter-Glo viability, 144 h; at 0.0195 µM; OCI-P5x cells; without rucaparib; stronger effect = lower value
Quantity name: viability (%)
Number in %, nothing else.

Give its viability value. Item: COc1ccc(-c2ccc3c(N4CCOC[C@@H]4C)nc(N4CCOC[C@@H]4C)nc3n2)cc1CO
62.8

Give its viability value. Item: CC(C)CC(=O)Nc1n[nH]c2c1CN(C(=O)C1CCN(C)CC1)C2(C)C
92.9

Give its viability value. Item: CS(=O)(=O)N1CCN(Cc2cc3nc(-c4cccc5[nH]ncc45)nc(N4CCOCC4)c3s2)CC1
87.5

Give its viability value. Item: C/C(=C\C(=O)Nc1ccccc1C(=O)O)c1ccc2ccccc2c1
112

Give its viability value. Item: CCc1cc(Nc2nccc(-c3c(-c4ccc(OC)c(C(=O)Nc5c(F)cccc5F)c4)nc4ccccn34)n2)c(OC)cc1N1CCC(N2CCN(S(C)(=O)=O)CC2)CC1
103

Give its viability value. Item: CC(C)(C)Cn1c(N)nc2ccc(-c3[nH]c(C(C)(C)C)nc3-c3ccc(F)cc3)nc21
107

Give its viability value. Item: CN[C@H]1CN(c2ccc3c(=O)c(C(=O)O)cn(-c4nccs4)c3n2)C[C@@H]1OC
95.3

Give its viability value. Item: CNC(=O)c1ccc(N2C(=S)N(c3ccc(C#N)c(C(F)(F)F)c3)C(=O)C2(C)C)cc1F
87.7

###

Assay comment: growth inhibition, single agents and combos, LFS_MB_2R, cell-based, cisplatin combos, synergistic combos for chromothripsis tumors (AID 1671457);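 also: cells exposed to compound for four days before readout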
Applied conditions: LFS_MB_2R medulloblastoma cells, at 0.5 µM, stronger effect = higher value
Quantity name: inhibition (%)
Number in %, nothing else.

Give its inhibition value. Item: CCCCc1nc2cc(/C=C/C(=O)NO)ccc2n1CCN(CC)CC
26.1

Give its inhibition value. Item: Nc1nc(OCc2cc(Br)cs2)c2[nH]cnc2n1
18.8

Give its inhibition value. Item: CC(=O)Nc1ccc(C(=O)Nc2ccccc2N)cc1
-12.7

Give its inhibition value. Item: COc1ccc(-n2c(SCCCN3C(=O)c4cccc5cccc(c45)C3=O)nnc2-c2ccncc2)cc1
-15

Give its inhibition value. Item: CO[C@H]1/C=C/O[C@@]2(C)Oc3c(C)c(O)c4c(O)c(c(/C=N\N5CCN(C6CCCC6)CC5)c(O)c4c3C2=O)NC(=O)/C(C)=C\C=C\[C@H](C)[C@H](O)[C@@H](C)[C@@H](O)[C@@H](C)[C@H](OC(C)=O)[C@@H]1C
-7.15

Give its inhibition value. Item: CN[C@@H]1CN(c2ccc3c(=O)c(C(=O)O)cn(-c4nccs4)c3n2)C[C@H]1OC
-28.9

Give its inhibition value. Item: O=c1[nH]c([C@@H]2CCCN2)nc2c1oc1ccc(Cl)cc12
-16

Give its inhibition value. Item: C[C@]12CCCN1CC1=NNC(=O)c3cc(F)cc4[nH]c2c1c34
-20.2

Give its inhibition value. Item: Cc1ccc([N+](=O)[O-])cc1S(=O)(=O)N(C)/N=C/c1cnc2ccc(Br)cn12
63.9

###

For each record, write down the corresponding fold change.
Assay comment: viability loss with induced miR-34 in A549 – imaging, A549 dox-inducible miR-34, nuclei and caspase counts, primary screen (AID 1347080)
Applied conditions: A549 miR-34 inducible, Hoechst nuclei count, 48 h; stronger effect = lower value; cell number ratio, induced over uninduced
# print the numeric value only

Give its fold change value. Item: c1ccc([B-]2(c3ccccc3)[NH2+]CCO2)cc1
0.926

Give its fold change value. Item: C=CCN(C)CCCCCCOc1ccc(C(=O)c2ccc(Br)cc2)c(F)c1
1.01

Give its fold change value. Item: CCC(=O)Nc1cccc(Oc2nc(Nc3ccc(N4CCN(C)CC4)cc3OC)ncc2Cl)c1
0.756

Give its fold change value. Item: COc1ccc(NS(=O)(=O)c2ccc(I)cc2)cc1N1CCN(C)CC1
0.956

Give its fold change value. Item: CCCCC[C@H](O)/C=C/[C@@H]1[C@@H](C/C=C\CCCC(=O)OC)[C@@H](O)C[C@H]1O
0.963

Give its fold change value. Item: Cn1cncc1[C@@](N)(c1ccc(Cl)cc1)c1ccc2c(c1)c(-c1cccc(Cl)c1)cc(=O)n2C
1.1

Give its fold change value. Item: O=C(c1ccc(F)cc1)C1CCN(CCCCc2ccccc2)CC1
0.877

Give its fold change value. Item: COc1cc(COc2cc(N)c(Cl)cc2C(=O)CCC2CCN(CCNS(C)(=O)=O)CC2)cc(OC)c1
0.842

Give its fold change value. Item: N#C/C(=C\c1ccc(O)c(O)c1)C(N)=O
0.887

Give its fold change value. Item: N#Cc1ccc(NCCNCC(=O)N2CCC[C@H]2C#N)nc1
0.825

Give its fold change value. Item: CN1CCN(C2CCN(C(=O)Nc3cc(Oc4ccc(NC(=O)C5(C(=O)Nc6ccc(F)cc6)CC5)c(F)c4)ccn3)CC2)CC1
0.875

Give its fold change value. Item: OC[C@H]1O[C@H](O[C@H]2[C@H](O)[C@@H](O)[C@H](O)O[C@@H]2CO)[C@H](O)[C@@H](O)[C@@H]1O
0.99

Give its fold change value. Item: NC(C(=O)O)c1ccc(C(=O)O)c(O)c1 (stereo unspecified)
0.966

Give its fold change value. Item: CCCCCCCCCCCC1N[C@H](C(=O)O)CS1 (stereo partly specified)
0.939

Give its fold change value. Item: Ic1cc(-c2ccccc2)ncn1
0.965

Give its fold change value. Item: CCc1cc2c(c(CC)n1)CCC(=O)N2Cc1ccc(-c2ccccc2-c2nn[nH]n2)cc1
0.902

Give its fold change value. Item: CCCCC[C@H](O)/C=C/[C@@H]1[C@@H](C/C=C\CCCCOC)[C@@H](O)C[C@H]1O
0.815

Give its fold change value. Item: CCCCNC(=O)NS(=O)(=O)c1ccc(CO)cc1
1.05

Give its fold change value. Item: COC(=O)C1=CC[C@@]23CC[C@@H]([C@@](C)(/C=C/C=C(\C)C(=O)O)OC2=O)[C@@]3(OC(C)=O)CC1
1.15

Give its fold change value. Item: O=[N+]([O-])c1cc2nc(O)c(O)nc2cc1[N+](=O)[O-]
0.896

Give its fold change value. Item: Oc1ccc(-c2c(-c3ccccc3)nn3c(C(F)(F)F)cc(C(F)(F)F)nc23)cc1
0.915
